- PROTOCOL: Part B (MAD): plasma PK of Formula (IIa) and its metabolites after once-daily oral Formula (IIa) for 7 days, fasted
- Format: in vivo, human
- RUN_PARAMETERS: human, in vivo, po, 400 mg, 400 mg Formula (IIa) QD oral, fasted, Day 1, plasma, arithmetic mean (CV %); read-out: Cmax
REPORTED_METRIC: Cmax (ng/mL)
Report as a plain number; the unit ng/mL is understood.

For this compound ( CO[C@H]1C(OP(=O)(OC[C@H]2O[C@@H](n3cnc4c(N)ncnc43)CC2O)SCOC(=O)OC(C)C)[C@@H](CO)O[C@H]1n1ccc(=O)[nH]c1=O (stereo partly shown) ), measured Cmax is 2.13

* * *

- PROTOCOL: Part B (MAD): plasma PK of Formula (IIa) and its metabolites after once-daily oral Formula (IIa) for 7 days, fasted
- Format: in vivo, human
- RUN_PARAMETERS: human, in vivo, po, 900 mg, 900 mg Formula (IIa) QD oral, fasted, Day 7, plasma, arithmetic mean (CV %); footnote: AUC0-24 = AUC0-t on Day 7; read-out: AUC0-24
REPORTED_METRIC: AUC(0-t) (ng·h/mL)
Answer with a number only, understood to be in ng·h/mL.

AUC(0-t) for CO[C@H]1C(OP(=O)(OC[C@H]2O[C@@H](n3cnc4c(N)ncnc43)CC2O)SCOC(=O)OC(C)C)[C@@H](CO)O[C@H]1n1ccc(=O)[nH]c1=O (stereo partly shown) is 13.7
